Each recorded value in this set is attributed to paper PMC3059893.

- TARGET_ENTITY: T1, Caspr4 (Homo sapiens)
- T1 chain: ENQKEYFF
- EXPERIMENT_DESCRIPTION: fluorescence anisotropy
Measured Kd accompanies every entry in the list below.

BINDER	Kd (µM)
Tiam1 PDZ (protein) VTQSIHIEKSDTAADTYGFSLSSVEEDGIRRLYVNSVKETGLASKKGLKAGDEILEINNRAADALNSSML	19
Tiam2 PDZ (protein) NVYDVQLTKTGSVCDFGFAVTAQVDERQHLSRIFISDVLPDGLAYGEGLRKGNEIMTLNGEAVSDLDLKQMEALFSEKSVGLTLIARPPDTKA	3.4
Tiam1 PDZ (protein) VTQSIHIEKSDTAADTYGFSLSSVEEDGIRRLYVNSVKETGLASKKGLKAGDEILEINNRAADALNSSMM	14
